Sourced from patent US9221795B2

Listing of recorded half-life at 2 μM by entry.
Assay: Hepatocyte stability (parent drug disappearance in cryopreserved hepatocytes)
Type: in vitro ADME, human
Settings: human, cryopreserved human hepatocytes, 2 μM substrate, 37° C.; Table 2a

Examples with their reported half-life at 2 μM follow.
[
  {
    "compound": "C[C@H](Nc1nc(N)nc(N)c1C#N)c1nc2c(Cl)cc(F)cc2c(=O)n1-c1ccc(N)nc1 [Compound 82]",
    "half-life at 2 μM": "> 600 min"
  },
  {
    "compound": "C[C@H](Nc1nc(N)nc(N)c1C#N)c1nc2cccc(Cl)c2c(=O)n1-c1ccc(N)nc1 [Compound 97]",
    "half-life at 2 μM": "> 600 min"
  }
]

Exercise: Tell me measured half-life at 2 μM for C[C@H](Nc1nc(N)nc(N)c1Cl)c1nc2cccc(Cl)c2c(=O)n1-c1ccc(N)nc1 [Compound 85] please.
Solution: > 600 min

###

Assay: Hepatocyte stability (parent drug disappearance in cryopreserved hepatocytes)
Type: in vitro ADME, human
Settings: human, cryopreserved human hepatocytes, class symbol; human hepatocytes, 2 μM substrate, 37° C.
measured-attribute: half-life at 2 μM

Exercise: Fill in half-life at 2 μM for record COc1cncc(-n2c([C@H](C)Nc3nc(N)nc(N)c3C#N)nc3cccc(Cl)c3c2=O)c1
Solution: 360 to 600 min

Exercise: State, in one line, measured half-life at 2 μM of C[C@H](Nc1nc(N)nc(N)c1C#N)c1nc2ccc(F)cc2c(=O)n1-c1cccnc1
Solution: > 600 min

Exercise: Supply half-life at 2 μM value. Item: C[C@H](Nc1nc(N)nc(N)c1C#N)c1nc2c(F)ccc(Cl)c2c(=O)n1-c1cccnc1
Solution: > 600 min

Exercise: Give the value of half-life at 2 μM reported for the following: Cc1ncccc1-n1c([C@H](C)Nc2nc(N)nc(N)c2C#N)nc2cccc(Cl)c2c1=O (atropisomer, axis not shown)
Solution: 180 to 360 min

Exercise: Give the reported value of half-life at 2 μM for this record: N#Cc1c(N)nc(N)nc1N[C@H](c1nc2cccc(Cl)c2c(=O)n1-c1cccnc1)C1CC1
Solution: > 600 min

###

Biological target: PI3Kδ (Homo sapiens (Human), UniProt O00329)
Sequence (O00329 whole entry, canonical isoform): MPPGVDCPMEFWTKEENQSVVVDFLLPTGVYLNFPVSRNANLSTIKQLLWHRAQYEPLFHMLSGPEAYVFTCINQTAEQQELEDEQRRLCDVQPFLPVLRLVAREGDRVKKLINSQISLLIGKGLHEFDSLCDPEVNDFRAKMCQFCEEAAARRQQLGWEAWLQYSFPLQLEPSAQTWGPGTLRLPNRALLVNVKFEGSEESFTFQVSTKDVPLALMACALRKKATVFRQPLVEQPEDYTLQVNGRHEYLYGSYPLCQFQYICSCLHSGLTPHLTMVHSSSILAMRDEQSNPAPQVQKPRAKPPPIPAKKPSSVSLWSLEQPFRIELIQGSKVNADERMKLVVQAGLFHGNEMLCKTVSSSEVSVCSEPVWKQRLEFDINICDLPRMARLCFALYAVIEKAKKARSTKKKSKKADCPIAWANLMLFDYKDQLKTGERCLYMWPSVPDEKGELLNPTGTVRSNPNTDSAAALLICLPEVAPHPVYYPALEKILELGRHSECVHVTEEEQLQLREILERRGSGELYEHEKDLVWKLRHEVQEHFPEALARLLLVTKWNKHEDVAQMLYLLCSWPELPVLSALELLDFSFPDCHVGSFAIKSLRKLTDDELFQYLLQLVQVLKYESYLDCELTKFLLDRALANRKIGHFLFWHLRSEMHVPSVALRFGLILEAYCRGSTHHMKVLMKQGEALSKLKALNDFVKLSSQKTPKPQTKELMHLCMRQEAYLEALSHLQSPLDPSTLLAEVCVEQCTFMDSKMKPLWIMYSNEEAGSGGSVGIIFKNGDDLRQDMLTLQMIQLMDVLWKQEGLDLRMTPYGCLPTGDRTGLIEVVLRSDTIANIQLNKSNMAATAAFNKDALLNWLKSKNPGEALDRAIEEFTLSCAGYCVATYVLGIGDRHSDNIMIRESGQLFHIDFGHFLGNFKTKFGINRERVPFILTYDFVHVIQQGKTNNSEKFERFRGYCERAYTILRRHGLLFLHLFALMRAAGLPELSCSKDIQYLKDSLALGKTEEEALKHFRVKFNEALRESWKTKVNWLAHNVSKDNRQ
Sequence (P27986 whole entry partner, canonical isoform): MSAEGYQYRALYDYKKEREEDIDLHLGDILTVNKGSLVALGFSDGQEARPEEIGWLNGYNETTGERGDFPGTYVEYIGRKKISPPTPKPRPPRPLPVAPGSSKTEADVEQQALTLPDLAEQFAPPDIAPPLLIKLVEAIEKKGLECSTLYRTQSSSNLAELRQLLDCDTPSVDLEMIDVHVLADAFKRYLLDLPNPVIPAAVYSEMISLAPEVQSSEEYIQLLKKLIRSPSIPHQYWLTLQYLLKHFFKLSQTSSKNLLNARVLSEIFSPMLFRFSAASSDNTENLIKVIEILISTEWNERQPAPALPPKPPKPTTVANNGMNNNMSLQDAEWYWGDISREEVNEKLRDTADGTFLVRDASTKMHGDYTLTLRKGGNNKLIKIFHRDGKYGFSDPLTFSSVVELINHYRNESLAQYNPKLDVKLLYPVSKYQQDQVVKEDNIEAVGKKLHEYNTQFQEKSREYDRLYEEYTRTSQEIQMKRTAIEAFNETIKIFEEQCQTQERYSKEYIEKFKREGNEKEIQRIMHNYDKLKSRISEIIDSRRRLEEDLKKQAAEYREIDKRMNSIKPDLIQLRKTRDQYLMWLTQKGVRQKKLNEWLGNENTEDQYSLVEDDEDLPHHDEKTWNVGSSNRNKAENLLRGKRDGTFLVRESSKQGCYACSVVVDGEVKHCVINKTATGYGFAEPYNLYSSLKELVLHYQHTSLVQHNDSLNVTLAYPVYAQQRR
Assay: Enzymatic activity of PI3K isoforms, TR-FRET assay (PI3Kδ)
Conditions: 2× Km ATP, geometric mean if more than one value
We label by threshold. Values of IC50 strictly beneath 10 nM are fulfilled. Values of 10 nM and up are not fulfilled.

Recorded results for 2 compounds are shown here.
[
  {
    "compound": "Cc1c(F)cncc1-n1c([C@H](C)Nc2nc(N)nc(N)c2C#N)nc2cccc(F)c2c1=O (atropisomer, axis not shown) [Compound 68]",
    "classification": "fulfilled"
  },
  {
    "compound": "Cc1ccncc1-n1c([C@H](C)Nc2nc(N)nc(N)c2C#N)nc2cccc(Cl)c2c1=O (atropisomer, axis not shown) [Compound 40]",
    "classification": "fulfilled"
  }
]

Please turn your attention to the following entry.
Exercise: Given the entry CC(C)C[C@H](Nc1nc(N)nc(N)c1C#N)c1nc2cccc(Cl)c2c(=O)n1-c1cncc(F)c1 , would its reported IC50 be below 10 nM?
Solution: not fulfilled

###

Target: PI3Kδ (Homo sapiens (Human))
Assay: Enzymatic activity of PI3K isoforms, TR-FRET assay (PI3Kδ)
Conditions: 2× Km ATP, geometric mean if more than one value
Experimental: Enzymatic activity of the class I PI3K isoforms in the presence of the compounds of Table 1 and Compounds X, Y and Z was measured using a time-resolved fluorescence resonance energy transfer (TR-FRET) assay. […] Data were normalized based on positive ([…] wortmanin) and negative (DMSO) controls. α, β, δ, and γ IC50 values were calculated from the fit of the dose-response curves to a four-parameter equation. […]
Listed here: items and their measured IC50.
Write it as a number; the unit nM goes unstated.

Solved entries (count: 6):
[
  {
    "compound": "Cc1cccc2nc([C@H](C)Nc3nc(N)nc(N)c3C#N)n(-c3cncc(F)c3)c(=O)c12",
    "tested-on": "PI3Kδ (Homo sapiens (Human))",
    "measured-attribute": "IC50",
    "observed-measurement": 0.8
  },
  {
    "compound": "C[C@H](Nc1nc(N)nc(N)c1C#N)c1nc2cccc(Cl)c2c(=O)n1-c1cncc(Cl)c1",
    "tested-on": "PI3Kδ (Homo sapiens (Human))",
    "measured-attribute": "IC50",
    "observed-measurement": 8
  },
  {
    "compound": "Cc1c(F)cncc1-n1c([C@H](C)Nc2nc(N)nc(N)c2C#N)nc2ccc(F)cc2c1=O (atropisomer, axis not shown) [Compound 75]",
    "tested-on": "PI3Kδ (Homo sapiens (Human))",
    "measured-attribute": "IC50",
    "observed-measurement": 510
  },
  {
    "compound": "CC[C@H](Nc1nc(N)nc(N)c1C#N)c1nc2cccc(Cl)c2c(=O)n1-c1cncc(F)c1C (atropisomer, axis not shown) [Compound 72]",
    "tested-on": "PI3Kδ (Homo sapiens (Human))",
    "measured-attribute": "IC50",
    "observed-measurement": 1
  },
  {
    "compound": "C[C@H](Nc1nc(N)nc(N)c1Cl)c1nc2cccc(Cl)c2c(=O)n1-c1cccnc1",
    "tested-on": "PI3Kδ (Homo sapiens (Human))",
    "measured-attribute": "IC50",
    "observed-measurement": 4
  },
  {
    "compound": "Cc1cc(N)ncc1-n1c([C@@H](Nc2nc(N)nc(N)c2C#N)C2CC2)nc2c(Cl)ccc(Cl)c2c1=O (atropisomer, axis not shown) [Compound 99]",
    "tested-on": "PI3Kδ (Homo sapiens (Human))",
    "measured-attribute": "IC50",
    "observed-measurement": 640
  }
]

With those in mind, consider the next compound.
Exercise: Write down the reported IC50 (system: PI3Kδ (Homo sapiens (Human))) of C[C@H](Nc1nc(N)nc(N)c1C#N)c1nc2c(F)ccc(F)c2c(=O)n1-c1cccnc1
Solution: 8
